Values compiled from patent US20050282840A1.

Tested Target: p75^NTR receptors (PC12 cells) (Rattus norvegicus)
Construct: endogenous in cells; host or cells: PC12 cells
Sequence (P07174 30-425): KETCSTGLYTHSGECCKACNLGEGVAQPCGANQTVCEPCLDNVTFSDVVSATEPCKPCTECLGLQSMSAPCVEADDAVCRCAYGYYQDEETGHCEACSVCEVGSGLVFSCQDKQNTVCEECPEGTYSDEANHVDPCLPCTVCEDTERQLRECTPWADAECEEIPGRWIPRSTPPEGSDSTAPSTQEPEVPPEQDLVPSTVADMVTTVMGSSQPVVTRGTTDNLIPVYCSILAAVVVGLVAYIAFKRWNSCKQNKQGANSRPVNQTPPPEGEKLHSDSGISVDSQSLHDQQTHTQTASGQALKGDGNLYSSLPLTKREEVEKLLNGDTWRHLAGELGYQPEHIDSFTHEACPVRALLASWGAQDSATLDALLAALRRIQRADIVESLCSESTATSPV
Sequence (P23560 129-247 partner): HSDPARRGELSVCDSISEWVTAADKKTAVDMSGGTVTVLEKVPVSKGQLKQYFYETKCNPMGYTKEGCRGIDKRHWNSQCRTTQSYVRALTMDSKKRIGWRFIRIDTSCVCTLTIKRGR
Assay Comment: Basic screening assay: binding of 125I-BDNF to PC12 cells
Assay Setup: read-out: BDNF Activity % Maximal Binding
Quantity Measured: activity at 50 µM

> print(dat)
                                query.smiles                             tested.target  quantity.measured     result
 1  Cc1cc(C(=O)O)ccc1-c1ccc(/C=C2\C(=O)NC(=O)N(c3ccccc3F)C2=O)o1  p75^NTR receptors (PC12 cells) (Rattus norvegicus)  activity at 50 µM   0 to 10%
 2  Cc1cc(C)cc(N2C(=O)/C(=C/c3ccc(-c4ccc(C(=O)O)cc4)o3)C(=O)NC2=S)c1  p75^NTR receptors (PC12 cells) (Rattus norvegicus)  activity at 50 µM      > 50%
 3  Cc1cc(-c2ccc(C=C3C(=O)NC(=O)NC3=O)o2)ccc1[N+](=O)[O-]  p75^NTR receptors (PC12 cells) (Rattus norvegicus)  activity at 50 µM      > 50%
 4  COc1ccc(-c2ccc(C=C3C(=O)N(C)C(=O)N(C)C3=O)o2)cc1[N+](=O)[O-]  p75^NTR receptors (PC12 cells) (Rattus norvegicus)  activity at 50 µM  10 to 20%
 5  NS(=O)(=O)c1ccc(-c2ccc(C=C3C(=O)NC(=S)NC3=O)o2)cc1  p75^NTR receptors (PC12 cells) (Rattus norvegicus)  activity at 50 µM      > 50%
 6  Cc1cc([N+](=O)[O-])ccc1-c1ccc(/C=C2/C(=O)NC(=O)N(C)C2=O)o1  p75^NTR receptors (PC12 cells) (Rattus norvegicus)  activity at 50 µM  30 to 40%
 7  O=C1NC(=O)C(=Cc2ccc(-c3ccc([N+](=O)[O-])cc3)o2)C(=O)N1  p75^NTR receptors (PC12 cells) (Rattus norvegicus)  activity at 50 µM   0 to 10%
 8  COc1ccc(-c2ccc(C=C3C(=O)NC(=S)NC3=O)o2)cc1[N+](=O)[O-]  p75^NTR receptors (PC12 cells) (Rattus norvegicus)  activity at 50 µM   0 to 10%
 9  COC(=O)c1ccc(-c2ccc(/C=C3\C(=O)NC(=O)N(Cc4ccccc4)C3=O)o2)cc1  p75^NTR receptors (PC12 cells) (Rattus norvegicus)  activity at 50 µM  10 to 20%
10  O=C1NC(=O)C(=Cc2ccc(-c3ccc([N+](=O)[O-])cc3Cl)o2)C(=O)N1  p75^NTR receptors (PC12 cells) (Rattus norvegicus)  activity at 50 µM   0 to 10%
11  CN1C(=O)NC(=O)C(=Cc2ccc(-c3ccc([N+](=O)[O-])cc3)o2)C1=O  p75^NTR receptors (PC12 cells) (Rattus norvegicus)  activity at 50 µM  20 to 30%
12  CCOC(=O)c1ccc(-c2ccc(C=C3C(=O)NC(=S)NC3=O)o2)cc1  p75^NTR receptors (PC12 cells) (Rattus norvegicus)  activity at 50 µM      > 50%
13  COC(=O)c1cccc(-c2ccc(C=C3C(=O)NC(=S)NC3=O)o2)c1  p75^NTR receptors (PC12 cells) (Rattus norvegicus)  activity at 50 µM      > 50%
14  Cc1cc([N+](=O)[O-])c(C)cc1-c1ccc(C=C2C(=O)NC(=O)NC2=O)o1  p75^NTR receptors (PC12 cells) (Rattus norvegicus)  activity at 50 µM   0 to 10%
